Recorded values, source ChEMBL document CHEMBL3399918.

- protocol-details: Cytotoxicity against human 184B5 cells after 72 hrs by MTT assay
- Format: cell-based
- settings: 184B5 cells
metric-name: GI50 at 72 h (µM)

> print(dat)
                                  smiles.str  recorded.result
 1      COc1ccc(OC(=O)Nc2ccc([Se]C#N)cc2)cc1              4.5
 2                CCOC(=O)Nc1ccc([Se]C#N)cc1              5.5
 3              C=CCOC(=O)Nc1ccc([Se]C#N)cc1                5
 4  N#C[Se]c1ccc(NC(=O)OCc2ccc([N+](=O)[O-])cc2)cc1                6
 5  Cc1ccc(OC(=O)Nc2ccc([Se][Se]c3ccc(NC(=O)Oc4ccc(C)cc4)cc3)cc2)cc1              3.5
 6  O=C(Nc1ccc([Se][Se]c2ccc(NC(=O)OCc3ccc([N+](=O)[O-])cc3)cc2)cc1)OCc1ccc([N+](=O)[O-])cc1                6
 7            CC(C)COC(=O)Nc1ccc([Se]C#N)cc1              5.8
 8  O=C(Nc1ccc([Se][Se]c2ccc(NC(=O)Oc3ccccc3)cc2)cc1)Oc1ccccc1              4.5
 9              CCCCOC(=O)Nc1ccc([Se]C#N)cc1              5.3
10  CCCOC(=O)Nc1ccc([Se][Se]c2ccc(NC(=O)OCCC)cc2)cc1              7.2
11      N#C[Se]c1ccc(NC(=O)Oc2ccc(Cl)cc2)cc1              5.6

----------
- System: HT-29
- protocol-details: Cytotoxicity against human HT-29 cells after 72 hrs by MTT assay
- Format: functional
- settings: HT-29, 72 h
# strict inequality: LC50 < 70 µM yields Satisfied, everything else yields Not satisfied

> print(dat)
                                  smiles.str  target.of.assay  class.assignment
 1  N#C[Se]c1ccc(NC(=O)OCC2=Cc3ccccc3S2(=O)=O)cc1            HT-29     Not satisfied
 2  O=C(Nc1ccc([Se][Se]c2ccc(NC(=O)OCC3=Cc4ccccc4S3(=O)=O)cc2)cc1)OCC1=Cc2ccccc2S1(=O)=O            HT-29         Satisfied
 3               CCCOC(=O)Nc1ccc([Se]C#N)cc1            HT-29     Not satisfied
 4              C=CCOC(=O)Nc1ccc([Se]C#N)cc1            HT-29     Not satisfied
 5                CCOC(=O)Nc1ccc([Se]C#N)cc1            HT-29         Satisfied
 6  O=C(Nc1ccc([Se][Se]c2ccc(NC(=O)Oc3ccc(Cl)cc3)cc2)cc1)Oc1ccc(Cl)cc1            HT-29     Not satisfied
 7  CC(C)COC(=O)Nc1ccc([Se][Se]c2ccc(NC(=O)OCC(C)C)cc2)cc1            HT-29     Not satisfied
 8  O=C(Nc1ccc([Se][Se]c2ccc(NC(=O)Oc3ccc(F)cc3)cc2)cc1)Oc1ccc(F)cc1            HT-29     Not satisfied
 9  CCCCCCOC(=O)Nc1ccc([Se][Se]c2ccc(NC(=O)OCCCCCC)cc2)cc1            HT-29     Not satisfied
10  COc1ccc(OC(=O)Nc2ccc([Se][Se]c3ccc(NC(=O)Oc4ccc(OC)cc4)cc3)cc2)cc1            HT-29     Not satisfied
11  O=C(Nc1ccc([Se][Se]c2ccc(NC(=O)OCC3c4ccccc4-c4ccccc43)cc2)cc1)OCC1c2ccccc2-c2ccccc21            HT-29     Not satisfied
12  CCCCOC(=O)Nc1ccc([Se][Se]c2ccc(NC(=O)OCCCC)cc2)cc1            HT-29     Not satisfied
13              CCCCOC(=O)Nc1ccc([Se]C#N)cc1            HT-29         Satisfied
14  O=C(Nc1ccc([Se][Se]c2ccc(NC(=O)OCc3ccc([N+](=O)[O-])cc3)cc2)cc1)OCc1ccc([N+](=O)[O-])cc1            HT-29     Not satisfied
15            CC(C)COC(=O)Nc1ccc([Se]C#N)cc1            HT-29         Satisfied
16  CCOC(=O)Nc1ccc([Se][Se]c2ccc(NC(=O)OCC)cc2)cc1            HT-29     Not satisfied
17       N#C[Se]c1ccc(NC(=O)Oc2ccc(F)cc2)cc1            HT-29         Satisfied
18  C=CCOC(=O)Nc1ccc([Se][Se]c2ccc(NC(=O)OCC=C)cc2)cc1            HT-29     Not satisfied
19  CCCOC(=O)Nc1ccc([Se][Se]c2ccc(NC(=O)OCCC)cc2)cc1            HT-29     Not satisfied
